Measurement target: Keap1-Maltose Binding Protein (MBP tag) (Homo sapiens, UniProt Q14145)
Sequence (Q14145 whole entry): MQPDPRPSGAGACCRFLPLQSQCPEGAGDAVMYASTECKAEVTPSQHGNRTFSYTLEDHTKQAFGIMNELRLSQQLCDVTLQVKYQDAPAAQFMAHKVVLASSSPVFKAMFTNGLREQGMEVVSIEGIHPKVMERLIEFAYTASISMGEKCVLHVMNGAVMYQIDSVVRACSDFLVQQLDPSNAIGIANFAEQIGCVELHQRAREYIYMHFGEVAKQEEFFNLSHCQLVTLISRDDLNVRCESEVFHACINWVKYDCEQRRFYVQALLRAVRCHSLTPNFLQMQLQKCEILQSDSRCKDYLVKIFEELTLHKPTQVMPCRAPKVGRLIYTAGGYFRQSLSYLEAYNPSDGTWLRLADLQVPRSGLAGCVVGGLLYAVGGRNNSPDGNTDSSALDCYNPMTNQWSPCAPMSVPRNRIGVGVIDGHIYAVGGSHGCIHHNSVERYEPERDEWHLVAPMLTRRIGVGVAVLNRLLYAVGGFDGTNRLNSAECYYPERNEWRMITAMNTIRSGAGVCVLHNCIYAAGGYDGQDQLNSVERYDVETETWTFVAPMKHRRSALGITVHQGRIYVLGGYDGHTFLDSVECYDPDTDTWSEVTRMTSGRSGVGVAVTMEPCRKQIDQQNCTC
Assay overview: Nrf2-Keap1 HTRF (TR-FRET) binding assay: displacement of biotinylated ETGE peptide from Keap1-MBP
Starred links: 1 amine or outer side, 2 acyl side, 3 side chain; linkers in the order of their positions; H or OH if unused. Positions of bridges follow the written chain, without caps; N, C: chain ends. Residues, ends and D or L forms follow the SMILES beside them. mXylylene = c1cc(C[*:1])cc(C[*:2])c1
Here the recorded IC50 is given for each entry.
Property measured: IC50

1. CCCCCCCCCCCCCCCCCC(=O)N[C@H]1C[C@H]2C(=O)N[C@@H](CCC(N)=O)C(=O)N[C@H]3CSCc4cccc(c4)CSC[C@H](NC(=O)[C@H](CCC(=O)O)NC(=O)CNC(=O)[C@H]([C@@H](C)O)NC(=O)[C@H](CCC(=O)O)NC(=O)[C@@H]4CCCN4C(=O)[C@H](CC(=O)O)NC3=O)C(=O)N[C@@H](CC(C)C)C(=O)N3CCC[C@@H]3C(=O)N2C1 :: < 1 nM
2. CC(C)C[C@@H]1NC(=O)[C@@H]2CCCN2C(=O)[C@H](CC(C)C)NC(=O)[C@@H]2CSCc3cccc(c3)CSC[C@H](NC(=O)[C@H](CCC(N)=O)NC1=O)C(=O)N[C@@H](CC(=O)O)C(=O)N[C@@H](CCC(=O)O)C(=O)N[C@@H](CCC(=O)O)C(=O)N[C@@H]([C@@H](C)O)C(=O)NCC(=O)N[C@@H](CCC(=O)O)C(=O)N2 [Example 4] (cyclo(CDEETGECLPLQ); linker 1-8 via mXylylene) :: < 1 nM
3. CCCCCCCCCCCC(=O)N[C@H]1C[C@H]2C(=O)N[C@@H](CCC(N)=O)C(=O)N[C@H]3CSCc4ccccc4CSC[C@H](NC(=O)[C@H](CCC(=O)O)NC(=O)CNC(=O)[C@H]([C@@H](C)O)NC(=O)[C@H](CCC(=O)O)NC(=O)[C@@H]4CCCN4C(=O)[C@H](CC(=O)O)NC3=O)C(=O)N[C@@H](CC(C)C)C(=O)N3CCC[C@@H]3C(=O)N2C1 :: < 1 nM

====

Measurement target: Keap1-Maltose Binding Protein (MBP tag) (Homo sapiens, UniProt Q14145)
Assay overview: Nrf2-Keap1 HTRF (TR-FRET) binding assay: displacement of biotinylated ETGE peptide from Keap1-MBP
Reported conditions: HTRF (TR-FRET); displacement of ETGE-biotin from Keap1-MBP; values banded into grades; read-out: Binding (IC50) ETGE-Keap1
Starred links: 1 amine or outer side, 2 acyl side, 3 side chain; linkers in the order of their positions; H or OH if unused. Positions of bridges follow the written chain, without caps; N, C: chain ends. Residues, ends and D or L forms follow the SMILES beside them. *: point of attachment. mXylylene = c1cc(C[*:1])cc(C[*:2])c1; X6 = c1ccc2nc(C[*:2])c(C[*:1])nc2c1; Stearoyl = CCCCCCCCCCCCCCCCCC(=O)*; pXylylene = c1cc(C[*:2])ccc1C[*:1]; βAla = NCCC(=O)O
Property measured: IC50

1) CC(=O)N[C@H]1CSCc2nc3ccccc3nc2CSC[C@@H](C(N)=O)NC(=O)[C@H](CCC(=O)O)NC(=O)CNC(=O)[C@H]([C@@H](C)O)NC(=O)[C@H](CCC(=O)O)NC(=O)[C@H](CCC(=O)O)NC(=O)[C@H](CC(=O)O)NC1=O [Example 26] (Ac-CDEETGEC-NH2; linker 1-8 via X6) :: 1 to 100 nM
2) CCCCCCCCCCCCCCCCCC(=O)NCCC(=O)N[C@@H](CC(C)C)C(=O)N[C@@H](CCC(N)=O)C(=O)N[C@H]1CSCc2cccc(c2)CSC[C@@H](C(=O)N[C@@H](CC(C)C)C(=O)N2CCC[C@H]2C(=O)O)NC(=O)[C@H](CCC(=O)O)NC(=O)CNC(=O)[C@H]([C@@H](C)O)NC(=O)[C@H](CCC(=O)O)NC(=O)[C@@H]2CCCN2C(=O)[C@H](CC(=O)O)NC1=O [Example 37] ({Stearoyl-βAla}-LQCDPETGECLP-OH; linker 3-10 via mXylylene) :: 1 to 100 nM
3) CC(C)C[C@H](NC(=O)[C@@H]1CSCc2ccc(cc2)CSC[C@H](NC(=O)[C@H](CCC(N)=O)NC(=O)[C@@H](N)CC(C)C)C(=O)N[C@@H](CC(=O)O)C(=O)N[C@@H](CCC(=O)O)C(=O)N[C@@H](CCC(=O)O)C(=O)N[C@@H]([C@@H](C)O)C(=O)NCC(=O)N[C@@H](CCC(=O)O)C(=O)N1)C(=O)N1CCC[C@H]1C(=O)O [Example 2] (H-LQCDEETGECLP-OH; linker 3-10 via pXylylene) :: 100 to 5000 nM
4) CC(C)C[C@H](NC(=O)[C@@H]1CSCc2cccc(c2)CSC[C@H](NC(=O)[C@H](CCC(N)=O)NC(=O)[C@@H](N)CC(C)C)C(=O)N[C@@H](CC(=O)O)C(=O)N[C@@H](C)C(=O)N[C@@H](CCC(=O)O)C(=O)N[C@@H]([C@@H](C)O)C(=O)NCC(=O)N[C@@H](CCC(=O)O)C(=O)N1)C(=O)N1CCC[C@H]1C(=O)O [Example 14] (H-LQCDAETGECLP-OH; linker 3-10 via mXylylene) :: < 1 nM
5) CC(=O)N[C@H]1CSCc2ccccc2CSC[C@@H](C(N)=O)NC(=O)[C@H](CCC(=O)O)NC(=O)CNC(=O)[C@H]([C@@H](C)O)NC(=O)[C@H](CCC(=O)O)NC(=O)[C@H](C)NC(=O)[C@H](CC(=O)O)NC1=O :: 1 to 100 nM
6) CCCCCCCCCCCCCCCCCC(=O)N[C@H]1C[C@H]2C(=O)N[C@@H](CCC(N)=O)C(=O)N[C@H]3CSCc4ccccc4CSC[C@H](NC(=O)[C@H](CCC(=O)O)NC(=O)CNC(=O)[C@H]([C@@H](C)O)NC(=O)[C@H](CCC(=O)O)NC(=O)[C@@H]4CSCN4C(=O)[C@H](CC(=O)O)NC3=O)C(=O)N[C@@H](CC(C)C)C(=O)N3CCC[C@@H]3C(=O)N2C1 :: < 1 nM
